molecular target: OAT1 (Homo sapiens, UniProt Q4U2R8); test: OAT1 inhibition by antibiotics, transfected HEK293 cells, tanshinol as substrate
Sequence (Q4U2R8 whole entry): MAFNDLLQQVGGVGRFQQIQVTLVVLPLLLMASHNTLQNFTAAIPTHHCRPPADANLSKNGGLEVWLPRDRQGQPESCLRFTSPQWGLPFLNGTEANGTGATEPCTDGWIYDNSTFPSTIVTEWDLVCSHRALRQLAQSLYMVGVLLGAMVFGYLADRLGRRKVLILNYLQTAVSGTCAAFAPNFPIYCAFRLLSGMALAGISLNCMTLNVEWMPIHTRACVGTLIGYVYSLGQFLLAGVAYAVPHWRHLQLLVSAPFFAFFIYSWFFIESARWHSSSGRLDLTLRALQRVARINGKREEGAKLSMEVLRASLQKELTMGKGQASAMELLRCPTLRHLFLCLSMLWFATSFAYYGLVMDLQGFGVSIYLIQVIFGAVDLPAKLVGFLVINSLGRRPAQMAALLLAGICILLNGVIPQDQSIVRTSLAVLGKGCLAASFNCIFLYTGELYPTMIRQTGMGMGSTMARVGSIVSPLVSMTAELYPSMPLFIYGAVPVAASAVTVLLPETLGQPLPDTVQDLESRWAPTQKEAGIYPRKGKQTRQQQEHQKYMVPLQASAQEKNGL
pIC50: −log10 of the molar value. Starred links: 1 amine or outer side, 2 acyl side, 3 side chain; linkers in the order of their positions; H or OH if unused. Positions of bridges follow the written chain, without caps; N, C: chain ends. Non-standard residues stand in square brackets, D forms with d. Residues, ends and D or L forms follow the SMILES beside them. *: point of attachment. hTyr(3S-OH,4S-OH,3'-OSO3H) = N[C@H](C(=O)O)[C@H](O)[C@@H](O)c1ccc(O)c(OS(=O)(=O)O)c1; Orn(4R-OH,5R-OH) = O=C([C@H](C[C@@H](O)[C@@H](O)N[*:3])N[*:1])[*:2]; Pro(3S-OH,4S-Me) = C[C@H]1CN[C@H](C(=O)O)[C@H]1O; X1 = CCCCCOc1ccc(-c2cc(-c3ccc(C(=O)*)cc3)no2)cc1; Gln(3R-OH) = NC(=O)C[C@@H](O)[C@H](N)C(=O)O; Hyp = O=C(O)[C@@H]1C[C@@H](O)CN1
Mark 1 for reported pIC50 of 4 or greater; mark -1 for anything smaller.

Recorded results for 2 compounds are shown here.
CC[C@H](C)C[C@H](C)CCCCCCCCC(=O)N[C@H]1C[C@@H](O)[C@@H](NCCN)NC(=O)[C@@H]2[C@@H](O)CCN2C(=O)[C@H]([C@H](O)CCN)NC(=O)[C@H]([C@H](O)[C@@H](O)c2ccc(O)cc2)NC(=O)[C@@H]2C[C@@H](O)CN2C(=O)[C@H]([C@@H](C)O)NC1=O = 1
Cc1onc(-c2c(F)cccc2Cl)c1C(=O)N[C@@H]1C(=O)N2[C@@H]1SC(C)(C)[C@@H]2C(=O)O = -1

Req: Say whether CCN1CCN(C(=O)N[C@@H](C(=O)N[C@@H]2C(=O)N3[C@@H]2SC(C)(C)[C@@H]3C(=O)O)c2ccccc2)C(=O)C1=O shows pIC50 of 4 or more.
Resp: -1

Req: Say whether CCCCCOc1ccc(-c2cc(-c3ccc(C(=O)N[C@H]4C[C@@H](O)[C@@H](O)NC(=O)[C@@H]5[C@@H](O)[C@@H](C)CN5C(=O)[C@H]([C@H](O)CC(N)=O)NC(=O)[C@H]([C@H](O)[C@@H](O)c5ccc(O)c(OS(=O)(=O)O)c5)NC(=O)[C@@H]5C[C@@H](O)CN5C(=O)[C@H]([C@@H](C)O)NC4=O)cc3)no2)cc1 [A40, micafungin] (X1-[Orn(4R-OH,5R-OH)]T[Hyp][hTyr(3S-OH,4S-OH,3'-OSO3H)][Gln(3R-OH)][Pro(3S-OH,4S-Me)]; lactam 1-C) shows pIC50 of 4 or more.
Resp: 1

Req: Say whether C[C@@H](c1ncncc1F)[C@](O)(Cn1cncn1)c1ccc(F)cc1F shows pIC50 of 4 or more.
Resp: -1

---

target: UniProtKB Q9NPD5; conditions: antibiotic as perpetrator, salvianolic acid B (X10) as victim; (Cmax × fu-p × R)/IC50
Sequence (Q9NPD5 whole entry): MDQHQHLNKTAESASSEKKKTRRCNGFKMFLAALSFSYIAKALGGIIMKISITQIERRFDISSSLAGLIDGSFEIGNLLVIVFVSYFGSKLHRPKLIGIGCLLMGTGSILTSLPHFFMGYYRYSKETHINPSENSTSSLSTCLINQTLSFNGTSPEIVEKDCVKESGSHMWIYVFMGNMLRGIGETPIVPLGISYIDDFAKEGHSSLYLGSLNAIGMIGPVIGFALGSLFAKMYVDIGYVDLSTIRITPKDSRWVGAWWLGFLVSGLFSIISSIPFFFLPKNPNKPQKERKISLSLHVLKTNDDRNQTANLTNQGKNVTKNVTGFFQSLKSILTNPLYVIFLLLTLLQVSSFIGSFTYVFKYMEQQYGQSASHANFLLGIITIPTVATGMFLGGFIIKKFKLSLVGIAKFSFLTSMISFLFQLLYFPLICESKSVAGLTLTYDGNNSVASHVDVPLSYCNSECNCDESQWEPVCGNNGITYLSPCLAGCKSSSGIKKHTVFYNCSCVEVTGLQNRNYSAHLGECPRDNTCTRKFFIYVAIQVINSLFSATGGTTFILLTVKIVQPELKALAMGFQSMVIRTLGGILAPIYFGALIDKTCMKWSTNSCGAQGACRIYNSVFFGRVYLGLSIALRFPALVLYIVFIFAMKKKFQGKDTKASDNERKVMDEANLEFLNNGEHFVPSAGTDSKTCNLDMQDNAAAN
measure.name: Inhibition DDI index, OATP1B3
# print the numeric value only

C[C@@H](c1ncncc1F)[C@](O)(Cn1cncn1)c1ccc(F)cc1F = 2.16

The reported value for Cc1onc(-c2ccccc2)c1C(=O)N[C@@H]1C(=O)N2[C@@H]1SC(C)(C)[C@@H]2C(=O)O in terms of Inhibition DDI index, OATP1B3 is 4.64
